test: PK, intravenous administration; assay type: in vivo; conditions: rat, plasma, male Sprague Dawley rats, dose about 1 mg/kg, read-out: Vdss
Parameter: Vd (L/kg)

CN(C)C1CCN(S(=O)(=O)c2nnc(Nc3c4c(cc5c3CCC5)CCC4)[nH]2)CC1 : 4.01
CC(C)c1cc(F)cc(C(C)C)c1Nc1nnc(S(=O)(=O)N2CCC(N(C)C)CC2)[nH]1 : 11.5
CN(C)CC1CCN(S(=O)(=O)c2nnc(Nc3c4c(cc5c3CCC5)CCC4)[nH]2)C1 (stereo not shown) : 10.1
COc1cc(-c2ccc3c(c2Nc2nnc(S(=O)(=O)N4CC5(CCN(C)C5)C4)[nH]2)CCO3)ccn1 : 1.02
